- Tested on: ACHN renal
- testSummary: NCI tumour cell line growth inhibition, 48 h
quantity: TGI (µM)
Numbers only, in µM.

Please go through the list and note TGI for each compound.
1. CC[C@H](C)[C@H]1NC(=O)[C@@H](NC(=O)[C@@H](CC(C)C)N(C)C(=O)C2CCCN2C(=O)[C@H](C)O)[C@@H](C)OC(=O)[C@@H]2Cc3ccccc3CN2C(=O)[C@@H]2CCCN2C(=O)[C@H](CC(C)C)NC(=O)[C@@H](C)C(=O)[C@H](C(C)C)OC(=O)C[C@@H]1O (some centres not stated)
2. Cc1ccc(C2C3Cc4ccccc4C3=NN2c2ccc(S(=O)(=O)NC(=O)NC3CCCCC3)cc2)cc1 (configuration not stated)

1. 15.5
2. 28.5

Please go through the list and note TGI for each compound.
1. NCCNC1=CC(=O)c2nc3ccccc3c3ccnc1c23
2. CN1C[C@@H](c2ccc(Cl)cc2)[C@]2(NC(=S)N(c3ccc(F)c(Cl)c3)C2=O)[C@@]12C(=O)NC1C=CC(Cl)=C[C@H]12 (some centres not stated)

1: 19.6; 2: 10.6

Please go through the list and note TGI for each compound.
1. C[C@]12CC[C@H]3[C@@H](CCC4=C[C@@H](N5CCCC5)CC[C@@]43C)[C@@H]1C/C(=C\c1ccncc1)[C@@H]2O
2. O=S(=O)(Nc1ccc(Cl)c(F)c1)c1ccc(-c2cnc(C3CC3)o2)cc1
3. Cc1ccc(C(=O)CC(O)(C(F)(F)F)C(F)(F)F)cc1[N+](=O)[O-]

40.6
15.8
28.9

###

So I've got a bunch of molecules here, and I need their TGI values.
- System: A498 renal
- testSummary: NCI tumour cell line growth inhibition, 48 h
Where a SMILES comes first, the peptide text is derived from it. [ ]: non-standard residue; d: D form. The star is where a group is joined. ξ: configuration not given here. ξD = NC(CC(=O)O)C(=O)O; Boc = CC(C)(C)OC(=O)*; Aib = CC(C)(N)C(=O)O; OtBu = CC(C)(C)O*

>>> val("O=S(=O)(SCCCCSS(=O)(=O)c1ccc(Cl)cc1)c1ccc(Cl)cc1")
"32.9 µM"
>>> val("COP(=O)(OC)/C(=C/c1cn(C(C)=O)c2ccccc12)NC(C)=O")
"94.3 µM"
>>> val("COc1ccc(/C=c2/s/c(=C(\\C#N)c3nc4ccccc4[nH]3)n(-c3ccccc3)c2=O)cc1")
"> 76.5 µM"
>>> val("CCc1cccc(C)c1NC(=O)CCc1n[nH]c(=S)o1")
"> 100 µM"
>>> val("COc1ccc2c(c1)N=C(N)n1c(nc3ccccc31)S2")
"80.6 µM"
>>> val("CC(=O)/C(=C/n1ccc(=O)[nH]c1=S)C(=O)Nc1ccccc1C")
"> 100 µM"
>>> val("CN(C)c1ccc(/C=C(\\NC(=O)c2ccccc2)C(=O)Nc2ccccc2C(=O)NCc2ccccc2)cc1")
"> 100 µM"
>>> val("CC1NOC(=O)C1N=Nc1ccccc1Br (centres undefined)")
"51.3 µM"
>>> val("Nc1nc(N)c2ncn(-c3ccc(Br)cc3)c2n1")
"> 61.9 µM"
>>> val("O=C1CSC(c2ccc([N+](=O)[O-])cc2)N1c1nc(-c2ccc3c(c2)CCCC3)cs1 (centres undefined)")
"> 100 µM"

Please go through the list and note TGI for each molecule.
1. O=C(O)C1CCC(=O)N1C(=O)C(Cl)c1ccccc1 (centres undefined)
2. COc1ccc(-c2nc3c(-c4ccccc4)nc(-c4ccccc4)cn3c2-c2ccc(OC)cc2)cc1
3. CC(CO)CCNc1ncnc2c1ncn2CCC#N (centres undefined)

> 100 µM
> 100 µM
> 100 µM

Please go through the list and note TGI for each molecule.
1. COC(=O)/C(=N\NC(N)=O)C(C(=O)C(=O)Nc1ccccc1C(=O)OC)c1nc2ccc(C(=O)c3ccccc3)cc2[nH]c1=O (centres undefined)
2. COc1cc(O)cc2oc(-c3ccc(O)cc3)cc(=O)c12
3. Cc1nc2c(o1)C(=Nc1ccccc1)c1ccccc1C2=Nc1ccccc1
4. OC1CCCCCCCCCCC1SCCCCl (centres undefined)
5. O=C(c1cccc(F)c1F)N1CCc2c([nH]c3ccccc23)C1c1ccc2c(c1)OCO2 (centres undefined)
6. C/C=C/C1=CN2C(=O)c3cc(OC4OC(C)C(NC)C(C)(O)C4O)c(C)cc3N=C[C@@H]2C1 (some centres undefined)

["> 100 µM", "78.3 µM", "> 100 µM", "> 100 µM", "> 100 µM", "0.0319 µM"]

Please go through the list and note TGI for each molecule.
1. COC(=O)/C=C/CC(=O)NS(C)(=O)=O
2. O=C(O)/C=C\C(=O)c1ccc(Cl)cc1
3. COC(=O)C(C)(C)NC(=O)C(C)(C)NC(=O)C(CC(=O)OC(C)(C)C)NC(=O)OC(C)(C)C (centres undefined) (Boc-[ξD](OtBu)-[Aib]-[Aib]-OMe)
4. COc1ccc(C2=C(c3cn(C)c4ccccc34)C(=O)OC2)cc1OC
5. N#CCCC1(CCC#N)CCCCCCC(CCC#N)(CCC#N)C(=O)C1=O
6. CN1C[C@@H](c2ccc(Cl)cc2)[C@]2(NC(=S)N(c3ccc(F)c(Cl)c3)C2=O)[C@@]12C(=O)NC1C=CC(Cl)=C[C@H]12 (some centres undefined)

1. > 10 µM
2. > 100 µM
3. > 100 µM
4. 3.5 µM
5. > 100 µM
6. 10.1 µM

Please go through the list and note TGI for each molecule.
1. [N-]=[N+]=NCC1OC(n2cnc3c(N)ncnc32)C2OC12 (centres undefined)
2. CC(=O)OC(C[C@H](C)[C@@H]1CC[C@]2(C)C3=CCC4C(C)(C)C(=O)CC[C@]4(C)C3CCC12C)C1OC1(C)C (some centres undefined)
3. Cc1ccc(N2CN3OC(=O)N(c4ccccc4)[C@@]3(c3ccccc3)C2)cc1
4. CCOC(=O)C(Br)(C(N)=O)C1(O)OC(c2ccccc2)=C(Br)C1=O (centres undefined)

> 100 µM
31.7 µM
> 100 µM
> 100 µM

Attribution: PubChem BioAssay (NCI)
